The origin of these recorded values is paper PMC9401498.

Procedure summary: Plasma pharmacokinetics of telaglenastat
Assay type: in vivo, human
Condition summary: human, in vivo, 800 mg, C min, steady state C1D15, 800 mg BID-fed (n = 10), median (range)
Quantity name: concentration at 15 day of cycle 1 (ng/mL)
Supply the numeric figure in ng/mL, leaving out any unit text.

Query `O=C(Cc1cccc(OC(F)(F)F)c1)Nc1ccc(CCCCc2nnc(NC(=O)Cc3ccccn3)s2)nn1` yields concentration at 15 day of cycle 1 of 443

* * *

Procedure summary: Plasma pharmacokinetics of telaglenastat
Format: in vivo, human
Condition summary: human, in vivo, 800 mg, Cmax, RCC patient with PR (800 mg BID)
Quantity name: Cmax (ng/mL)
Supply the numeric figure in ng/mL, leaving out any unit text.

Query `O=C(Cc1cccc(OC(F)(F)F)c1)Nc1ccc(CCCCc2nnc(NC(=O)Cc3ccccn3)s2)nn1` yields Cmax of 2960

* * *

Procedure summary: Plasma pharmacokinetics of telaglenastat
Type: in vivo, human
Condition summary: human, in vivo, 600 mg
Quantity name: half-life (h)
Supply the numeric figure in h, leaving out any unit text.

Query `O=C(Cc1cccc(OC(F)(F)F)c1)Nc1ccc(CCCCc2nnc(NC(=O)Cc3ccccn3)s2)nn1` yields half-life of 3.73
